- system: Human DGAT1 (Homo sapiens)
- Construct: made in house; host or cells: Sf9 insect cells (baculovirus); microsomes
- test: hDGAT1 fluorescence (CPM) assay, inhibition of CoA product formation
- Assay type: biochemical
- setup.conditions: human DGAT1 microsomes from Sf9 cells
pIC50: −log10 of the molar value.
measured.parameter: pIC50

Some entries whose results are on file:
{"smiles.entry": "CCCn1[nH]c(=O)c2cc(N3CCOc4ncnc(N)c4C3=O)ccc21", "system": "Human DGAT1 (Homo sapiens)", "pIC50": 8.20}
{"smiles.entry": "CCCn1ccc2cc(N3CCOc4ncnc(N)c4C3=O)ccc21", "system": "Human DGAT1 (Homo sapiens)", "pIC50": 7.79}
{"smiles.entry": "Nc1ncnc2c1C(=O)N(c1ccc3c(ccn3-c3nccs3)c1)CCO2", "system": "Human DGAT1 (Homo sapiens)", "pIC50": 7.69}
{"smiles.entry": "Nc1ncnc2c1C(=O)N(c1cnc3c(ccn3C3CC3)c1)CCO2", "system": "Human DGAT1 (Homo sapiens)", "pIC50": 7.59}

I. Nc1ncnc2c1C(=O)N(c1ccc3c(ccn3-c3ccc(C(F)(F)F)nc3)c1)CCO2
II. CC(C)c1cn(-c2ccccc2)c2ccc(N3CCOc4ncnc(N)c4C3=O)cc12
III. Nc1ncnc2c1C(=O)N(c1cnc3c(ccn3-c3cccc(Cl)c3)c1)CCO2
IV. Nc1ncnc2c1C(=O)N(c1ccc3c(ccn3-c3ccc(C(F)(F)F)cc3)c1)CCO2
Sort (4 compounds) by pIC50: min first. Please list the labels according to the requested order.
II, I, IV, III
(II: 6.06, I: 7.40, IV: 8.14, III: 8.55)

----------
- system: Human DGAT1 (Homo sapiens, UniProt O75907)
- Construct: made in house; host or cells: Sf9 insect cells (baculovirus); microsomes
- Sequence (O75907 whole entry): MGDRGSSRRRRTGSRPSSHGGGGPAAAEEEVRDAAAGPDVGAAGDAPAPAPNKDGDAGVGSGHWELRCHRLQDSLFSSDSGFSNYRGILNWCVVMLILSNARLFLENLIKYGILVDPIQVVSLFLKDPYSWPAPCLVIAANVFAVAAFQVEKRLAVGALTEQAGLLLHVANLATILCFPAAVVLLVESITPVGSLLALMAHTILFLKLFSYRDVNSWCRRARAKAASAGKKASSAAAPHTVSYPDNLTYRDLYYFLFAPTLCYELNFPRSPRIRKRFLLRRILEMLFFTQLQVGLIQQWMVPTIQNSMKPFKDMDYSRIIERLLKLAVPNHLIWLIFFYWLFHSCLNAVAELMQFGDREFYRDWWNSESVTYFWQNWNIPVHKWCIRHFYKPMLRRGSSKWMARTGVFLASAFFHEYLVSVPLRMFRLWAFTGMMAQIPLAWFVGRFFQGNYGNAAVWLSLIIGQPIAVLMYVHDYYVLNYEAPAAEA
- test: hDGAT1 lipid extraction (LE) assay, inhibition of triacylglycerol product formation
- Assay type: biochemical
- setup.conditions: human DGAT1 microsomes from Sf9 cells; radiolabelled tridecanoylglycerol extraction
pIC50: −log10 of the molar value.
measured.parameter: pIC50

{"compound": "Nc1ncnc2c1C(=O)N(c1ccc3nc[nH]c(=O)c3c1)CCO2 [Example 98]", "experimental.value": 6.21}
{"compound": "CS(=O)(=O)n1ccc2cc(N3CCOc4ncnc(N)c4C3=O)ccc21 [Example 60]", "experimental.value": 7.83}
{"compound": "Nc1ncnc2c1C(=O)N(c1cnc3c(ccn3-c3cccc(C(F)(F)F)c3)c1)CCO2 [Example 81]", "experimental.value": 8.68}
{"compound": "Nc1ncnc2c1C(=O)N(c1cnc3c(ccn3-c3ccccc3)c1)CCO2 [Example 72]", "experimental.value": 8.03}

I. CCCn1cc(C(=O)C(F)(F)F)c2cc(N3CCOc4ncnc(N)c4C3=O)ccc21 [Example 63]
II. Nc1ncnc2c1C(=O)N(c1ccc3c(ccn3-c3ccccc3)c1)CCO2 [Example 65]
Smaller pIC50 value, I vs II ? Lab note: record the label of whichever item you select.
II

I. Nc1ncnc2c1C(=O)N(c1ccc3c(ccn3-c3ccc(F)c(F)c3)c1)CCO2 [Example 74]
II. Nc1ncnc2c1C(=O)N(c1cnc3c(ccn3CC(F)F)c1)CCO2 [Example 33]
III. Nc1ncnc2c1C(=O)N(c1ccc3ncn(Cc4ccccc4)c(=O)c3c1)CCO2 [Example 97]
IV. CCCn1cc(C(C)(OC)C(F)(F)F)c2cc(N3CCOc4ncnc(N)c4C3=O)ccc21 (centres unmarked) [Example 64]
Arrange the 4 compounds from largest to smallest pIC50. Answer format: the labels, ordered as requested.
I, IV, II, III
